Assay: MTT cytotoxicity assay, panel statement over the five cancer cell lines
Assay type: cell-based, human
Settings: human
Parameter: IC50 at 48 h

compound=COc1cc2c(c(OC)c1OC)[C@@H](OC)O[C@@H]1CC=C3CCN(C)[C@H]3[C@H]21 recorded_value="> 10 µM"
compound="CO[C@@H]1C=C[C@@]23c4cc5c(cc4C(O)[N+](C)(C[C@@H]2O)[C@H]3C1)OCO5.[Cl-] (some centres unmarked) [Compound 1, N-methylhaemanthidine chloride]" recorded_value="0.81 to 13 µM"
compound="CN1Cc2cc3c(cc2-c2ccccc21)OCO3 [Compound 13, 5,6-dihydrobicolorine]" recorded_value="> 10 µM"
compound=CC(C)CCn1c(=O)c2cc3c(cc2c2ccccc21)OCO3 recorded_value="> 10 µM"
compound=O[C@H]1[C@H]2c3cc4c(cc3CN3CCC(=C[C@@H]1O)[C@H]23)OCO4 recorded_value="0.81 to 13 µM"
compound=O=c1c2cc3c(cc2c2ccccc2n1CCc1ccccc1)OCO3 recorded_value="0.81 to 13 µM"
compound=c1ccc2c(c1)ncc1cc3c(cc12)OCO3 recorded_value="> 10 µM"
compound=CCOC(=O)CCCn1c(=O)c2cc3c(cc2c2ccccc21)OCO3 recorded_value="> 10 µM"
